assayTarget: Progesterone receptor (Bos taurus)
Sequence (Q690N0 whole entry): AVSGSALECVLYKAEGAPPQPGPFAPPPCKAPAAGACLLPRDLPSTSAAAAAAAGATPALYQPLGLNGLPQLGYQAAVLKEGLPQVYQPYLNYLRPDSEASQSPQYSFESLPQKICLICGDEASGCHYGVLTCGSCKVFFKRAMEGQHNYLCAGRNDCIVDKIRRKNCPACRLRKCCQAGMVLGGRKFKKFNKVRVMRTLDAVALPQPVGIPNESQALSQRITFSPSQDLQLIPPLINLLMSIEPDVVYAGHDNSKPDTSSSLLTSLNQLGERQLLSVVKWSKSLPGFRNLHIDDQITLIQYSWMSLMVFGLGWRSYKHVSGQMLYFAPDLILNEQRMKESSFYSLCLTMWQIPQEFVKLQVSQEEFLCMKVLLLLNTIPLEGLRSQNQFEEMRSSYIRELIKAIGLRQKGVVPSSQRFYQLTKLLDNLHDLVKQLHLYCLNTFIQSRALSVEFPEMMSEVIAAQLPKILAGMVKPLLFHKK
experimentalDetails: DRUGMATRIX: Progesterone radioligand binding (ligand: [3H] R-5020)
Type: tissue-based, Uterus
appliedConditions: Not Active = under 50% inhibition at 10 µM; read-out: Ki
Measured pKi by item
Notebook: values listed as pKi are -log10 of the concentration (mol/L).

Ask: Report measured pKi; entry is C[C@]12Cc3c[nH]nc3C[C@@H]1CC[C@@H]1[C@@H]2CC[C@@]2(C)[C@H]1CC[C@]2(C)O
Reply: 6.32

Ask: State its pKi: CC(=O)O[C@]1(C(C)=O)CC[C@H]2[C@@H]3C=C(Cl)C4=CC(=O)CC[C@]4(C)[C@H]3CC[C@@]21C [CHLORMADINONE ACETATE]
Reply: 9.16

Ask: For CC(=O)S[C@@H]1CC2=CC(=O)CC[C@]2(C)[C@H]2CC[C@@]3(C)[C@@H](CC[C@@]34CCC(=O)O4)[C@H]12 , write its pKi.
Reply: 6.66

Ask: Look up and state reported pKi for Clc1ccccc1C(c1ccccc1)(c1ccccc1)n1ccnc1
Reply: 5.94

Ask: Determine its reported pKi: CC(=O)[C@@]1(O)CC[C@H]2[C@@H]3C[C@H](C)C4=CC(=O)C=C[C@]4(C)[C@@]3(F)[C@@H](O)C[C@@]21C
Reply: 6.97

Ask: For the molecule CC(=O)OCC(=O)[C@@]1(OC(C)=O)[C@@H](C)C[C@H]2[C@@H]3C[C@H](F)C4=CC(=O)C=C[C@]4(C)[C@@]3(F)[C@@H](O)C[C@@]21C [DIFLORASONE DIACETATE] , give its measured pKi value.
Reply: 7.82

Ask: Output measured pKi for this item: CC(=O)[C@H]1CC[C@H]2[C@@H]3CCC4=CC(=O)CC[C@]4(C)[C@H]3CC[C@]12C
Reply: 8.44
